# protocol_notes: Inhibition of human ABCB1 expressed in mouse L5178Y cells assessed as reduction in cell growth after 24 hrs by MTT assay
pIC50: −log10 of the molar value.
# pIC50 values compiled below

- smiles_data: "CC[C@@H]1CN(C)[C@H]2Cc3c([nH]c4ccccc34)[C@@H](O)C[C@H]1[C@@H]2C(=O)OC"
  modifier_sign: "="
  pIC50: 4.08
- smiles_data: "C/C=C/C(=O)O[C@H]1C[C@@H]2[C@@H](CC)CN(C)[C@@H](Cc3c1[nH]c1ccccc31)[C@H]2C(=O)OC"
  modifier_sign: "<"
  pIC50: 4.00
- smiles_data: "CC[C@@H]1CN(C)[C@H]2Cc3c([nH]c4ccccc34)/C(=N/O)C[C@H]1[C@@H]2C(=O)OC"
  modifier_sign: "="
  pIC50: 4.07
- smiles_data: "CC[C@H]1CN(C)[C@H]2Cc3c(n(C(=O)c4cccc(C)c4)c4ccccc34)C(=O)C[C@H]1[C@@H]2C(=O)OC"
  modifier_sign: "<"
  pIC50: 4.00
- smiles_data: "CC[C@H]1CN(C)[C@H]2Cc3c([nH]c4ccccc34)/C(=N/NC(=O)OCc3ccc(OC)cc3)C[C@H]1[C@@H]2C(=O)OC"
  modifier_sign: "="
  pIC50: 4.28
- smiles_data: "CC[C@H]1CN(C)[C@H]2Cc3c([nH]c4ccccc34)C(=O)C[C@H]1[C@@H]2C(=O)OC"
  modifier_sign: "<"
  pIC50: 4.00
- smiles_data: "CC[C@H]1CN(C)[C@H]2Cc3c(n(Cc4ccccc4)c4ccccc34)C(=O)C[C@H]1[C@@H]2C(=O)OC"
  modifier_sign: "="
  pIC50: 4.42
- smiles_data: "CC[C@H]1CN(C)[C@H]2Cc3c([nH]c4ccccc34)/C(=N/NC(=S)NCc3cccnc3)C[C@H]1[C@@H]2C(=O)OC"
  modifier_sign: "="
  pIC50: 4.34
